B1: TPR 5TU (parent)
chain: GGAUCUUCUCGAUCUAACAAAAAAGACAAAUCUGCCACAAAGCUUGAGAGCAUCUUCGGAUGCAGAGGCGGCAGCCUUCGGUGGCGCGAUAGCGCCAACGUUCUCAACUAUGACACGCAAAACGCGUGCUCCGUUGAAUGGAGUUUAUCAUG

- Variants of: B1
- experiment-description: polymerase ribozyme fitness, log enrichment relative to wild type (log ratio); higher = more active; in vitro selection for triplet polymerase activity
This sample holds only a part of the variants without activity.
measurement-label: polymerase ribozyme fitness (log ratio)
Give bare numbers.

Take a look at these entries with their results.
{"mutation-descriptor": "U31C U44A C54A C76G C95G C105G A107G", "polymerase ribozyme fitness (log ratio)": -4.01}
{"mutation-descriptor": "A17C U55A U56A C85G A115G", "polymerase ribozyme fitness (log ratio)": -3.1}
{"mutation-descriptor": "A20G A21C U31C C103A U144G", "polymerase ribozyme fitness (log ratio)": -1.73}
{"mutation-descriptor": "A40U C85A", "polymerase ribozyme fitness (log ratio)": -1.44}
{"mutation-descriptor": "C14G C18U G92C", "polymerase ribozyme fitness (log ratio)": -2.89}
{"mutation-descriptor": "C57A C93U", "polymerase ribozyme fitness (log ratio)": -1.11}
{"mutation-descriptor": "C18U A22U U53G C96A", "polymerase ribozyme fitness (log ratio)": -3.13}
{"mutation-descriptor": "C93A A150G", "polymerase ribozyme fitness (log ratio)": -3.51}
{"mutation-descriptor": "U56A C57G A113C", "polymerase ribozyme fitness (log ratio)": -1.82}
{"mutation-descriptor": "U55A A142U", "polymerase ribozyme fitness (log ratio)": -0.464}

Working through the 6 variants below one at a time, give polymerase ribozyme fitness (log ratio) for each.
1. C99G A115G C125G G136C
2. U55A G92U U146C
3. C93U C95G
4. A21G U55G G143C
5. G86A C105U
6. A21C A52C C85U G117C

-3.89
-0.69
-2.26
-1.59
-0.138
-0.924

Provide polymerase ribozyme fitness (log ratio) for all items below, preserving their order.
1. U31C C63G G83A C96U
2. C118A A119U
3. U6G C14U
4. A37G A40U C54G A60G
5. C57U A97G G128C G141C

1.61
-0.617
-1.09
-2.66
-3.99

Provide each entry's polymerase ribozyme fitness (log ratio) from the list below.
1. C96U A110U
2. C57U A138U U145G
3. A39U C85U
4. G42C C85U

[-3.6, -3.98, -2.27, -3.97]

Hi there! I need polymerase ribozyme fitness (log ratio) for each item below, if you can.
1. C54U U55A C95G C96A
2. A41C A89U C123G
3. C38U G62A A113G G136A
4. U61A U101G
5. C14G A19C
6. A30U C38U
7. U31A C54G C57A C85G C123U
8. G50U U56A G83A

1: -3.07; 2: -1.41; 3: -2.45; 4: -1.11; 5: -1.66; 6: -3.76; 7: -3.47; 8: -0.268
